Examples of compounds with documented IC50 follow.
test system: IL-2; experiment: PHA-IL2 (cell activation and cytokine analysis); type: cell-based; details: 50% inhibition concentration class

# count of solved cases: 3
{"COMPOUND": "O=C(COc1ccccc1-c1ccc2c(c1)OCCO2)N1CCC(CCc2ccc3c(c2)OCO3)CC1", "READOUT": "IC50", "OBSERVED MEASUREMENT": "1 to 10 µM"}
{"COMPOUND": "CC(C)Oc1cccc(CCC2CCN(C(=O)COc3ccccc3-c3cc(C#N)ccc3OCc3ccccc3)CC2)c1", "READOUT": "IC50", "OBSERVED MEASUREMENT": "< 1 µM"}
{"COMPOUND": "COc1cccc(CCC2CCN(C(=O)COc3ccc(S(N)(=O)=O)cc3-c3ccc(F)cc3O)CC2)c1", "READOUT": "IC50", "OBSERVED MEASUREMENT": "1 to 10 µM"}

Need IC50, item COc1ccc(CCC2CCN(C(=O)C(C)Oc3c(C)cccc3-c3ccccc3)CC2)cc1 (centres unmarked) 1 to 10 µM

Need IC50, item N#Cc1ccc(-c2cc(C(N)=O)ccc2OCC(=O)N2CCC(CCc3ccccc3)CC2)cc1 1 to 10 µM

Need IC50, item CCN(CC)C(=O)c1cccc(-c2ccccc2OCC(=O)N2CCC(CCc3ccc4c(c3)OCO4)CC2)c1 10 to 50 µM

Need IC50, item CC(Oc1ccccc1-c1ccccc1)C(=O)N1CCC(CCc2ccc3c(c2)OCCCO3)CC1 (centres unmarked) < 1 µM

Need IC50, item O=C(COc1ccccc1-c1ccc(Cl)nc1)N1CCC(CCc2ccc(O)cc2)CC1 < 1 µM
